- testSummary: gradient 5% acetonitrile 3 min, to 50% in 2 min, to 85% in 15 min, held 3 min, 100 µL/min
- runParameters: column: Zorbax Extend-C18 2.1 x 50 mm; eluents: water / acetonitrile, 0.1% formic acid
metric: RP-LC retention time (s)

CC(=O)c1ccc(NC(=O)c2cnc(-c3ccccc3)nc2-c2ccncc2)cc1 | 795
CCc1ccc(NC(=O)C2CCCN2S(=O)(=O)c2cc3c(cc2Cl)NC(=O)CO3)cc1 (stereo not given) | 868
O=C(NC1CCCCC1)C1CCN(C(=O)c2cc(-c3ccncc3)n[nH]2)CC1 | 590

a = CC(C)n1cnc2cc(CNC(=O)Cc3ccsc3)ccc21
b = CCOc1ccc(NC(=O)Cn2c(=O)cc(-c3nc(CC)no3)c3ccccc32)cc1
Recorded RP-LC retention time values differ for a and b ; which one is higher? Reply with the label of the item you choose.
b
(b: 936 s, a: 582 s)
